- System under test: S1P1/EDG1 (Homo sapiens, UniProt P21453)
- Sequence (P21453 whole entry): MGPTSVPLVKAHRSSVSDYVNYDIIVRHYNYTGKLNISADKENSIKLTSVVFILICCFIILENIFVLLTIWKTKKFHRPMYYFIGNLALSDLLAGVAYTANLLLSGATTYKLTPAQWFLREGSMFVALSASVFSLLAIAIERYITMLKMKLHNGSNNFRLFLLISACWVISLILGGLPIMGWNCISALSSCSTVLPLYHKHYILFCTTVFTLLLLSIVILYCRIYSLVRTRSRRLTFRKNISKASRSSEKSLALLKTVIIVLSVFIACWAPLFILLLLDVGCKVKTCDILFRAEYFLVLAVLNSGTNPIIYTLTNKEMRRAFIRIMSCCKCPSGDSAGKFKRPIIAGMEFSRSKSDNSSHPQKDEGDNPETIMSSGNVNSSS
- Assay method text: S1P1 CRE-bla CHOK1 reporter assay (inhibition of Forskolin induced cAMP)
- Type: cell-based
- Applied conditions: agonist activity range, Table 2; read-out: S1P1 ACTIVITY
pEC50: −log10 of the molar value.
Quantity name: pEC50

* CC(C)Oc1ccc(-c2ncc(-c3cccc4c3CC[C@@H]4O)s2)cc1C#N [Compound 70] | 8.30 to 9.30
* CC(C)Oc1ccc(-c2ncc(-c3cccc4c3CCC4NS(=O)(=O)CC(=O)N3CCOCC3)s2)cc1C#N (stereo in doubt) [Compound 162] | 9.30 to 10.30
* CC(C)Oc1ccc(-c2ncc(-c3cccc4c3CC[C@@H]4NC(=O)N3CC[C@@H](N(C)C)C3)s2)cc1C#N [Compound 185] | < 8.30
* CC(=O)N[C@H]1CCc2c(-c3cnc(-c4ccc(OC(C)C)c(C#N)c4)s3)cccc21 [Compound 88] | 8.30 to 9.30
* CC(C)Oc1ccc(-c2ncc(-c3cccc4c3CC[C@@H]4NCCS(C)(=O)=O)s2)cc1C#N [Compound 221] | 9.30 to 10.30
* CC(C)Oc1ccc(-c2ncc(-c3cccc4c3CC[C@@H]4NS(=O)(=O)CCN3CCNCC3)s2)cc1C#N [Compound 151] | < 8.30
* CC(C)Oc1ccc(-c2ccc(-c3cccc4c3CCC4O)s2)cc1C#N (stereo not shown) [Compound 223] | 8.30 to 9.30
